target: angiotensin II AT1 receptor; assay: Assay A: Angiotensin II binding activity, rat uterine membrane preparation, 125I-AII displacement
recorded-endpoint: IC50 (nM)
Only the number, expressed in nM, is required.

CCCCc1nn(CC(OCC(=O)OCC)c2ccccc2)c(=O)n1Cc1ccc(-c2ccccc2-c2nn[nH]n2)cc1 (centres unmarked) ... 37
CCCCn1nc(C(F)CCC)nc1Cc1ccc(-c2ccccc2-c2nnn[nH]2)nc1 (centres unmarked) ... 70
CCCCn1nc(CCc2cccs2)nc1Cc1ccc(-c2ccccc2-c2nnn[nH]2)nc1 ... 1700

q: Sample CCCCc1nc(CCCC)n(Cc2ccc(-c3cccnc3-c3nnn[nH]3)cc2)n1 — what was its IC50?
a: 2.6

q: Sample CCCCc1nc(CCCC)n(Cc2ccc(-c3ccccc3C(=O)O)nc2)n1 — what was its IC50?
a: 25

q: Sample CCCCc1nn(CC(=O)O)c(=O)n1Cc1ccc(-c2ccccc2-c2nn[nH]n2)cc1 — what was its IC50?
a: 22

q: Sample CCn1nc(C(C)(F)F)nc1Cc1ccc(-c2ccccc2-c2nnn[nH]2)nc1 — what was its IC50?
a: 27

q: Sample CCCCc1cn(CC(CC)CC)c(=O)n1Cc1ccc(-c2ccccc2-c2nnn[nH]2)nc1 — what was its IC50?
a: 45

----------
system: pressor response to AII; assay: Assay C: In vivo intragastric pressor assay response for AII antagonists; set-up: species or system Sprague-Dawley rats; conditions: Rattus norvegicus, intraduodenal; in vivo pressor response; 30 mg/kg intraduodenally; read-out: Assay C Inhibition
recorded-endpoint: inhibition in vivo at 30 mg/kg (%)
Only the number, expressed in %, is required.

Below are worked cases with known answers.
C[C@]12CCC(=O)C=C1C1CC1[C@H]1[C@@H]3CC[C@@]4(CCC(=O)O4)[C@@]3(C)CC3O[C@]312 (stereo partly shown) [Compound 9] ... 80
CCCCc1ncn(Cc2ccc(-c3ccccc3C(=O)O)cc2)n1 [Compound 30] ... 50
COC(=O)CC[C@]1(O)CC[C@H]2[C@@H]3C4CC4C4=CC(=O)CC[C@]4(C)[C@]34OC4C[C@@]21C (stereo partly shown) [Compound 7] ... 90
COC(=O)CC[C@]1(O)CC[C@H]2[C@@H]3[C@H](C(=O)OC)CC4=CC(=O)CC[C@]4(C)C34O[C@@H]4C[C@@]21C (stereo partly shown) [Compound 2] ... 98
CCCCc1nn(CC(O)c2cc(OC)ccc2OC)c(=O)n1Cc1ccc(-c2ccccc2-c2nn[nH]n2)cc1 (stereo not shown) [Compound 109] ... 50

q: Sample CCOC(=O)[C@@H]1CC2=CC(=O)CC[C@]2(C)C23O[C@@H]2C[C@@]2(C)[C@@H](CC[C@@]24CCC(=O)O4)[C@H]13 (stereo partly shown) [Compound 10] — what was its inhibition in vivo at 30 mg/kg?
a: 100

q: Sample CCCCc1nn(CCCCC(=O)OC)c(=O)n1Cc1ccc(-c2ccccc2-c2nn[nH]n2)cc1 [Compound 111] — what was its inhibition in vivo at 30 mg/kg?
a: 87

----------
molecular target: angiotensin II AT1 receptor; experiment: Assay A: Angiotensin II binding activity, rat uterine membrane preparation, 125I-AII displacement
This listing pairs compounds with measured log10 IC50.
Reminder: these figures are log10 of reported IC50, in nM before transformation.

Below are worked cases with known answers.
CCCCc1nc(-c2c(F)cccc2F)nn1Cc1ccc(-c2ccccc2-c2nnn[nH]2)nc1 ... 2.68
CCCCc1cn(-c2c(CC)cccc2CC)c(=O)n1Cc1ccc(-c2ccccc2-c2nnn[nH]2)nc1 ... 1.99
CCCCc1nc(CC(CC)CC)n(Cc2ccc(-c3ccccc3-c3nnn[nH]3)nc2)n1 ... 1.76

q: Sample CCCCc1nn(CC(=O)C23CC4CC(CC(C4)C2)C3)c(=O)n1Cc1ccc(-c2ccccc2-c2nn[nH]n2)cc1 — what was its log10 IC50?
a: 1.48

q: Sample CCCCc1nc(Cl)nn1Cc1ccc(-c2ccccc2-c2nnn[nH]2)cc1 — what was its log10 IC50?
a: 2.99

q: Sample CCCCc1cn(-c2ccccc2)c(=O)n1Cc1ccc(-c2ccccc2-c2nnn[nH]2)nc1 — what was its log10 IC50?
a: 1.97

q: Sample CCCCc1nc2cnncc2n1Cc1ccc(-c2ccccc2C(=O)O)cc1 — what was its log10 IC50?
a: 1.20

----------
system: rabbit aortic rings; experiment: Assay B: In vitro vascular smooth muscle response for AII (antagonist activity, pA2); format: cell-based; settings: Oryctolagus cuniculus, two values in a cell = two determinations
recorded-endpoint: log10(Kb) (log10 of the value in nM)
Reminder: these figures are log10 of reported Kb, in nM before transformation.

Below are worked cases with known answers.
CCCCc1nc(CCCC)n(Cc2ccc(-c3ccccc3C(=O)O)cc2)n1 [Compound 13] ... 0.30
CCCCc1cn(C(C)C)c(=O)n1Cc1ccc(-c2ccccc2-c2nnn[nH]2)nc1 [Compound 211] ... 0.26
CCCCc1nc(CC(OCC)OCC)nn1Cc1ccc(-c2ccccc2-c2nnn[nH]2)cc1 [Compound 49] ... 1.94
CCCCn1nc(/C=C/c2cccs2)nc1Cc1ccc(-c2ccccc2-c2nnn[nH]2)nc1 [Compound 165] ... 2.10

q: Sample CCCCc1nc(C2CCCCC2)n(Cc2ccc(-c3ccccc3-c3nnn[nH]3)cc2)n1 [Compound 76] — what was its log10(Kb)?
a: 3.48

q: Sample CCCCc1nc(C(F)(F)C(F)(F)F)nn1Cc1ccc(-c2ccccc2-c2nnn[nH]2)cc1 [Compound 80] — what was its log10(Kb)?
a: 0.90

q: Sample CCCCc1nc(CC(CC)CC)nn1Cc1ccc(-c2ccccc2-c2nnn[nH]2)nc1 [Compound 262] — what was its log10(Kb)?
a: 2.78

q: Sample CCCCc1cn(CCc2ccccc2)c(=O)n1Cc1ccc(-c2ccccc2-c2nnn[nH]2)cc1 [Compound 144] — what was its log10(Kb)?
a: 1.30

----------
tested on: rabbit aortic rings; experiment: Assay B: In vitro vascular smooth muscle response for AII (antagonist activity, pA2); type: cell-based; settings: Oryctolagus cuniculus, two values in a cell = two determinations
recorded-endpoint: Kb (nM)
Only the number, expressed in nM, is required.

Below are worked cases with known answers.
CCCCc1ncnn1Cc1ccc(-c2ccccc2-c2nnn[nH]2)cc1 [Compound 64] ... 100
CCCCc1nc(Cc2ccc(-c3ccccc3-c3nnn[nH]3)nc2)n(CC(CC)CC)n1 [Compound 168] ... 20.4

Now for another entry.
q: Sample CCCCc1nc(C(F)(F)C(F)(F)C(F)(F)F)nn1Cc1ccc(-c2ccccc2-c2nnn[nH]2)cc1 [Compound 81] — what was its Kb?
a: 10

----------
target: angiotensin II AT1 receptor; experiment: Assay A: Angiotensin II binding activity, rat uterine membrane preparation, 125I-AII displacement
This listing pairs compounds with measured pIC50.
Remember the convention: pIC50 equals -log10 of concentration in molar.

CCCCc1nc(CNC(=O)OC(C)(C)C)nn1Cc1ccc(-c2ccccc2-c2nnn[nH]2)cc1 [Compound 46] ... 6.96
CCCCc1nc(CC(C)(C)C)nn1Cc1ccc(-c2ccccc2-c2nnn[nH]2)nc1 [Compound 260] ... 6.66
CCCCn1cc(C2CCCC2)n(Cc2ccc(-c3ccccc3-c3nnn[nH]3)nc2)c1=O [Compound 203] ... 8.04

q: Sample CCCCc1nc(CCCC)n(Cc2ccc(-c3ccccc3-c3nnn[nH]3)cn2)n1 [Compound 250] — what was its pIC50?
a: 7.37

q: Sample C[C@]12CCC(=O)C=C1C1CC1[C@H]1[C@@H]3CC[C@@](O)(CCC(=O)O)[C@@]3(C)CC3O[C@]312 (some centres unmarked) [Compound 8] — what was its pIC50?
a: 4.77

q: Sample CCCCc1nc(CCCNC(=O)OC(C)(C)C)n(Cc2ccc(-c3ccccc3-c3nnn[nH]3)cc2)n1 [Compound 78] — what was its pIC50?
a: 7.00

q: Sample CCCCn1nc(C(F)(F)CCC)nc1Cc1ccc(-c2ccccc2-c2nnn[nH]2)cc1 [Compound 141] — what was its pIC50?
a: 9.96

q: Sample CCCCc1nc(-c2ccccc2OC)n(Cc2ccc(-c3ccccc3-c3nnn[nH]3)nc2)n1 [Compound 277] — what was its pIC50?
a: 6.72

q: Sample CCCCc1nc(C)n(Cc2ccc(-c3ccccc3C(=O)O)cc2)n1 [Compound 88] — what was its pIC50?
a: 7.30

q: Sample CCCCn1nc(C(F)(F)CC)nc1Cc1ccc(-c2ccccc2-c2nnn[nH]2)nc1 [Compound 179] — what was its pIC50?
a: 6.51

q: Sample CCCCc1nc(-c2ccccc2Cl)n(Cc2ccc(-c3ccccc3-c3nnn[nH]3)nc2)n1 [Compound 279] — what was its pIC50?
a: 6.57

----------
biological target: angiotensin II AT1 receptor; assay: Assay A: Angiotensin II binding activity, rat uterine membrane preparation, 125I-AII displacement
This listing pairs compounds with measured pIC50.
Remember the convention: pIC50 equals -log10 of concentration in molar.

Below are worked cases with known answers.
CCCCc1nc(CCCC)n(Cc2ccc(-c3ccccc3-c3nnn[nH]3)nc2)n1 [Compound 252] ... 7.89
CCCCc1nn(C(Cc2ccccc2)C(=O)c2ccccc2)c(=O)n1Cc1ccc(-c2ccccc2-c2nn[nH]n2)cc1 (centres unmarked) [Compound 105] ... 6.54
CCCCc1nc(CCCO)nn1Cc1ccc(-c2ccccc2-c2nnn[nH]2)cc1 [Compound 56] ... 8.30
CCCCc1cn(C23CC4CC(CC(C4)C2)C3)c(=O)n1Cc1ccc(-c2ccccc2-c2nnn[nH]2)nc1 [Compound 225] ... 6.80
CCCCc1nc(C(F)(F)C(F)(F)F)nn1Cc1ccc(-c2ccccc2-c2nnn[nH]2)cc1 [Compound 80] ... 7.60
CCCCn1nc(C(F)(F)CCC)nc1Cc1ccc(-c2ccccc2-c2nnn[nH]2)nc1 [Compound 181] ... 7.68
CCCCc1nc(CCC)n(Cc2ccc(-c3ccccc3-c3nnn[nH]3)cc2)n1 [Compound 26] ... 8.49

Now for another entry.
q: Query the reported pIC50 for angiotensin II AT1 receptor; item: CCCCc1nc(C(F)F)n(Cc2ccc(-c3ccccc3-c3nnn[nH]3)cc2)n1 [Compound 59]
a: 6.92
